Data provenance: PubChem BioAssay (NCI)

System: HS 578T breast
Assay: NCI-60 one-dose screen, 48 h (100 = growth as untreated, 0 = no growth, -100 = all killed)
Details: 10 µM unless noted
About 83,000 compounds went through this panel and 20% of them were active in at least one assay; those are over-represented in the sample as a whole.
quantityName: growth (%)
Return type: number; implicit unit %.

growth recorded for this compound, COc1cccc2c1C=CC1(O2)Oc2cccc(OC)c2C=C1C (centres undefined) , is 20.8

The reported value for `COc1ccc(N2CCN(C3=C(Cl)C(=O)c4ncccc4C3=O)CC2)cc1` in terms of growth is 70.2

response.value for `CCCC[n+]1ccc(SCC(=O)n2ccc3ccccc32)c2ccccc21` (field: growth) = 99.6

Item: NC1[C@H]2CN(c3cnc(C(=O)Nc4cc(F)cc5cccnc45)cn3)C[C@@H]12 (some centres undefined) | growth: 77.2

Form: compound = `Cc1cc2nc3c4cc(C#N)ccc4n(CCN(C)C)c3nc2cc1C` ; growth = -15

The compound listed as `COc1cc(NC(=O)Nc2cccc(-c3cc(=O)c4c(OC)c(OC)c(OC)cc4o3)c2)cc(OC)c1OC` has a reported growth of 17.1

Value of measured growth for the entry `CC(=O)Nc1nc(C)c(-c2csc(Nc3ccccc3)n2)s1` : -4.87

The recorded growth for `COc1ccc(C(=NNS(=O)(=O)c2ccc(C)cc2)c2ccccc2)cc1OC` is 104

For `C#C[C@]1(O)CC[C@H]2[C@@H]3CC=C4c5sc(Nc6cc(C)cc(C)c6)nc5CC[C@]4(C)[C@H]3CC[C@@]21C` the compound record lists growth as -10.8

Recorded growth (compound Cc1[nH]c(C(=O)Nc2ccccc2OCc2cccc(C(=O)NC3CCNC3)c2)c(Cl)c1Cl (centres undefined) ): 87.6

growth reading for `CNC(=O)c1cc(N2CCc3cc(NC(=O)Nc4ccc(N5CCN(C)CC5)c(C(F)(F)F)c4)ccc32)ccn1` : 61.4

The recorded growth for `CC(C)NC(=O)c1cc(-c2ccc(NC(=O)Nc3ccc(F)cc3)cc2)nc2cccnc12` is 109

The compound listed as `Cn1cc(C2=C(c3coc4cc(Br)ccc34)C(=O)NC2=O)c2ccccc21` has a reported growth of 52.8

The compound identified as `CCC(=C(c1ccc(OCCN(C)C)cc1)c1ccc(OCCN(C)C)cc1)c1ccc(Cl)cc1` registered its growth at -36.1

Query CCCc1cc2cc(-n3nc(CC)c4c3CC(C)(C)CC4=O)cc(NC3CCC(O)CC3)c2c(=O)[nH]1 (centres undefined) yields growth of 16.1

// field: growth; key: `CCOC(=O)c1c(NC(=O)c2cccc(C(F)(F)F)c2)sc2c3c(ccc12)OCN(C)C3` ; value = 38.4

Lab note: `O=c1c2cc(-c3ccc(F)cc3F)ccc2n(Nc2ccccc2)c(=O)n1-c1cccc(C(F)(F)F)c1` gave growth of -3.07

// growth lookup, compound = COc1ccc(C2C(C#N)=C(/N=C/c3ccc(Cl)cc3)Oc3c2sc2c(C)cccc32)cc1 (centres undefined) , result: -4.66

Recorded result, `CN1CCN(c2ccc(Nc3nc(NCCNS(=O)(=O)c4ccc(Cl)cc4)c4sccc4n3)cc2)CC1` , growth: 81.2

----------
Tested on: BT-549 breast
Test: NCI-60 one-dose screen, 48 h
Details: 10 µM unless noted
Compounds without any hit were thinned out: in the full panel of roughly 83,000, 20% have a hit. Activity calls are given as the source filed them. The calls were made as follows: active = growth percent below 10; inactive = the rest.
Give one outcome, nothing more. List: active, inactive

[Q] Tell me the assay call for CCc1cccc2c3c(sc12)C(c1ccc(F)cc1)C(C#N)=C(/N=C/c1ccc(Cl)cc1)O3 (centres undefined) please.
[A] active

[Q] Lab log entry: `COc1cc2oc(-c3cccc(NC(=O)c4cccc([N+](=O)[O-])c4)c3)cc(=O)c2c(OC)c1OC` — outcome as called in the assay?
[A] inactive

[Q] For this compound, state the assay outcome: `Cc1[nH]c(C(=O)Nc2ccccc2OCc2cccc(C(=O)NCCN)c2)cc1Cl`
[A] inactive

[Q] # lookup: test call for `Brc1ccc(-c2cc(-c3ccc4c(c3)OCCO4)n[nH]2)s1`
[A] inactive

[Q] Outcome? `NCCNC(=O)c1cccc(COc2ccccc2NC(=O)c2cc(Br)c(Br)[nH]2)c1`
[A] inactive

[Q] Returns: the outcome recorded for `Cc1ccc(S(=O)(=O)c2nc(-c3ccc(F)cc3)oc2S(C)(=O)=O)cc1` in this assay.
[A] inactive

[Q] Write down the call the test reported for this compound. Item: C/C=C/CC(C)C(O)[C@H](NC(=O)[C@@H]1CCCN1C(=O)[C@](C)(CC)NC(=O)CCCCCCCCC)C(=O)N[C@@](C)(CC)C(=O)N[C@@H](CCC(N)=O)C(=O)N[C@H](CCC(N)=O)C(=O)NC(C)(C)C(=O)NC(C)(C)C(=O)N[C@@H](CCC(N)=O)C(=O)N[C@H](CC(C)C)C(=O)N[C@H](CO)CC(C)C (some centres undefined)
[A] active

[Q] What was the test verdict on `CCOc1cccc(/C(N)=N/C(N)=N/c2nc3ccccc3s2)c1` ?
[A] inactive

[Q] What classification did `COc1ccccc1/C=C/C(=O)c1nnn(-c2ccc(F)cc2)c1C` end up with in this test?
[A] inactive
